target: Reticulon-4 (Homo sapiens, UniProt Q9NQC3); test: Covalent binding affinity to RTN4 at Cys1101 residue in human NCI-H358 cells assessed as reduction of log2 H/L ratio for tryptic peptide […] incubated for 4 hrs followed by cell lysis and subsequently labelled with light thiol probe N-((S)-18-iodo-11-isopropyl-10,13,17-trioxo-3,6-dioxa-9,12,16-triazaoctadecyl)-6-((4R,5S)-5-methyl-2-oxoimidazolidin-4-yl)hexanamide and heavy thiol probe 4 for 1 hr under dark conditions followed by tryptic digestion for overnight and measured by discovery ABPP based nano LC-MS/MS analysis
Sequence (Q9NQC3 whole entry): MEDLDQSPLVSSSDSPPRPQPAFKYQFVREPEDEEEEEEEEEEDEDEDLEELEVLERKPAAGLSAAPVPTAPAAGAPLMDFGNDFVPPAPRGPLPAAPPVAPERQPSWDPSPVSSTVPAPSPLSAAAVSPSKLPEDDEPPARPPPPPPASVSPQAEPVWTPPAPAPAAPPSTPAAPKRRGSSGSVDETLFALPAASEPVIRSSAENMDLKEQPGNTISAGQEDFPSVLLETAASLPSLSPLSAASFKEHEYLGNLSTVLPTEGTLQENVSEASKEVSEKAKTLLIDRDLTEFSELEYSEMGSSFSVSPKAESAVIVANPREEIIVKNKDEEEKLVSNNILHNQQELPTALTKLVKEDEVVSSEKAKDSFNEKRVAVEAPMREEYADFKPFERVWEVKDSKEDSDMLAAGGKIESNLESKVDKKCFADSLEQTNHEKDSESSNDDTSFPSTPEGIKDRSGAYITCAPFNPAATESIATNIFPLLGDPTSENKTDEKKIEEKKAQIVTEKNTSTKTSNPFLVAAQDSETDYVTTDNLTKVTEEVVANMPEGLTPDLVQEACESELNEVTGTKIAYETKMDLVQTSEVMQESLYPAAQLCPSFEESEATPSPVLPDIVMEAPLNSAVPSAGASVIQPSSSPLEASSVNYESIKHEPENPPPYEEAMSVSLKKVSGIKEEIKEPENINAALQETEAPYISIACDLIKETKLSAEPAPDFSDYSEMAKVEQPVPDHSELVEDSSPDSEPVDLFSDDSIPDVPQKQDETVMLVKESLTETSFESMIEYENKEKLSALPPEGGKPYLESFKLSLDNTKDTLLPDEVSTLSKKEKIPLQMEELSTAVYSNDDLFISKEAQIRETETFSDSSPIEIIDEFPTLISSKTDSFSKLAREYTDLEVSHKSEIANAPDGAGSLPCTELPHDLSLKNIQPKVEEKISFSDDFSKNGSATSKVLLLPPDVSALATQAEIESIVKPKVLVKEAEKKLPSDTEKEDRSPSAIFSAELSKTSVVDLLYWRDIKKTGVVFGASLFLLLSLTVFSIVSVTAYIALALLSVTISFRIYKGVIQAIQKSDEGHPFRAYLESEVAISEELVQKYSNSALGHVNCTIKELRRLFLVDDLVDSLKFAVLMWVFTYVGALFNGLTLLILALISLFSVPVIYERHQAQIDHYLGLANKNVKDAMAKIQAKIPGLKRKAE
Property Name: pIC50
// returns pIC50 (minus log10 of molar concentration), number only

Query: pIC50; subject: C=CC(=O)N1CCN(c2ncnc3c(F)c(-c4c(O)cccc4F)c(Cl)cc23)CC1
4.84
